Cited source for all entries: BigSolDB 2.1

Settings: in methanol, 310.15 K
measured-quantity: solubility (mole fraction)

INSERT INTO assay_data (test_smiles, measured_quantity, measured_value) VALUES
  ('CC(C)(C)OC(=O)N[C@@H](CC(=O)O)Cc1cc(F)c(F)cc1F', 'solubility (mole fraction)', 0.111);

----------
Conditions: in THF, 315.15 K
measured-quantity: solubility (mole fraction)

INSERT INTO measurements (test_smiles, measured_value) VALUES
  ('CC(C)(C)OC(=O)N[C@@H](CC(=O)O)Cc1cc(F)c(F)cc1F', 0.215);

----------
Conditions: in THF, 280.15 K
measured-quantity: solubility (mole fraction)

INSERT INTO measurements (test_smiles, measured_value) VALUES
  ('CC(C)(C)OC(=O)N[C@@H](CC(=O)O)Cc1cc(F)c(F)cc1F', 0.0933);
